# System: Calu-3
# PROTOCOL NOTES: cell viability relative to DMSO; higher = less toxic
# STUDY CONDITIONS: 72 h; 100 nM
PROPERTY LABEL: cell viability (%)
One number for each entry, in %.

MOLECULE: CCCCN(CCCC)C(=O)CN1C[C@H](c2ccc3c(c2)OCO3)[C@@H](C(=O)O)[C@@H]1c1ccc(OC)cc1 [atrasentan]
TESTED ON: Calu-3
UNIT STRING: %
cell viability: 114

MOLECULE: CC(C)OC(=O)OCOP(=O)(CO[C@H](C)Cn1cnc2c(N)ncnc21)OCOC(=O)OC(C)C [tenofovir-disoproxil]
TESTED ON: Calu-3
UNIT STRING: %
cell viability: 97.1

MOLECULE: COc1ccc2cc(-c3cc(-c4cc(Cl)cc(Cl)c4)nn3[C@@H](C)c3ccc(C(=O)NCCC(=O)O)cc3)ccc2c1 [MK-0893]
TESTED ON: Calu-3
UNIT STRING: %
cell viability: 97.7

MOLECULE: CN1C2CCC1CC(OC(c1ccccc1)c1ccc(Cl)cc1)C2 (stereo not drawn) [3-CPMT]
TESTED ON: Calu-3
UNIT STRING: %
cell viability: 106

MOLECULE: CN1CCC[C@@H]1Cc1c[nH]c2ccc(CCS(=O)(=O)c3ccccc3)cc12 [eletriptan]
TESTED ON: Calu-3
UNIT STRING: %
cell viability: 97.8

MOLECULE: COc1ccc(Cn2ccc3ccc(C(=O)NO)cc32)cc1
TESTED ON: Calu-3
UNIT STRING: %
cell viability: 96.8

MOLECULE: N[C@H](C(=O)O)c1cc(O)no1 [ibotenic-acid]
TESTED ON: Calu-3
UNIT STRING: %
cell viability: 105

MOLECULE: Cc1ccc(C(=O)N(CCCN)[C@@H](c2oc3cc(Cl)ccc3c(=O)c2Cc2ccccc2)C(C)C)cc1
TESTED ON: Calu-3
UNIT STRING: %
cell viability: 89.1

MOLECULE: O=C(O)c1cc(N2N=C(C(F)(F)F)/C(=C/c3ccc(-c4ccccc4)o3)C2=O)ccc1Cl [EN460]
TESTED ON: Calu-3
UNIT STRING: %
cell viability: 97.6

MOLECULE: Cc1nc(-c2cn3c(n2)-c2ccc(-c4cnn(C(C)(C)C(N)=O)c4)cc2OCC3)n(C(C)C)n1 [taselisib]
TESTED ON: Calu-3
UNIT STRING: %
cell viability: 63.6

Quick request: cell viability for each listed item, please.
1. CC(=O)OCC(=O)[C@@]1(O)CC[C@H]2[C@@H]3CCC4=CC(=O)C=C[C@]4(C)[C@@]3(Cl)[C@@H](Cl)C[C@@]21C [dichlorisone-acetate]
2. Cc1nc(C)c(-c2ccc(C3CCC(CC(=O)O)CC3)cc2)nc1C(N)=O (stereo not drawn) [AZD7687]
3. CC1(C)CC[C@]2(C(=O)O)CC[C@]3(C)C(=CC[C@@H]4[C@@]5(C)CC[C@H](O)C(C)(C)[C@@H]5CC[C@]43C)[C@@H]2C1 [oleanolic-acid]

Reply text:
1: 100; 2: 98.2; 3: 98.3

Source: the supplement of paper PMC13380429
